Tested on: soluble epoxide hydrolase (sEH)
Assay: Fluorescent assay for soluble epoxide hydrolase (CMNPC substrate), percent inhibition at the recited concentration
Format: biochemical
Conditions: Inhibition Conc. 2000 nM
Experimental: Fluorescent Assay for Mouse and Human Soluble Epoxide Hydrolase Recombinant mouse sEH (MsEH) and human sEH (HsEH) were produced in a baculovirus expression system as previously reported. […] Protein concentration was quantified using the Pierce BCA assay using bovine serum albumin as the calibrating standard. […] The assay was also evaluated with similar results in crude cell lysates or homogenate of tissues. The IC50s for each inhibitor were determined according to the following procedure: […] […]
Hi there, I'd appreciate the recorded % inh. for every entry that follows.
State just the number; it will be interpreted in %.

Query: Indicate the recorded % inh. value for this compound: CC(=O)N1CCC(NC(=O)NC2CCC2)CC1
Result: 76

Query: Indicate the recorded % inh. value for this compound: CC(=O)N1CCC(NC(=O)NC2CCS(=O)(=O)CC2)CC1
Result: 23

Query: Indicate the recorded % inh. value for this compound: CC(=O)N1CCC(NC(=O)NC2CCN(C(=O)C(C)(C)C)CC2)CC1
Result: 69

Query: Indicate the recorded % inh. value for this compound: CC(C)(C)OC(=O)N1CCC(NC(=O)Nc2ccc(CN3CCCC3)cc2)CC1
Result: 93

Query: Indicate the recorded % inh. value for this compound: CC(=O)N1CCC(NC(=O)NCC2CCOCC2)CC1
Result: 80

Query: Indicate the recorded % inh. value for this compound: O=C(Nc1ccc(C(F)(F)F)cc1)NC1CCN(c2ccccc2F)CC1
Result: 18

Query: Indicate the recorded % inh. value for this compound: COC(=O)c1ccc(NC(=O)NC2CCN(C(=O)OC(C)(C)C)CC2)o1
Result: 89

Query: Indicate the recorded % inh. value for this compound: COC(=O)c1ccc(NC(=O)NC2CCN(C(C)=O)CC2)cc1
Result: 69

Query: Indicate the recorded % inh. value for this compound: CC(=O)N1CCC(NC(=O)Nc2ccc3nc(C)sc3c2)CC1
Result: 70

====

Hi there, I'd appreciate the recorded % inh. for every entry that follows.
system: soluble epoxide hydrolase (sEH); assay: Fluorescent assay for soluble epoxide hydrolase (CMNPC substrate), percent inhibition at the recited concentration; type: biochemical; conditions: Inhibition Conc. 5000 nM
State just the number; it will be interpreted in %.

Query: Report % inh. from soluble epoxide hydrolase (sEH) testing of O=C(NC1CCN(c2ccncc2)CC1)NC12CC3CC(CC(C3)C1)C2 [Compound 2-4]
Result: 92

Query: Report % inh. from soluble epoxide hydrolase (sEH) testing of CC(=O)N1CCC(NC(=O)NC23CC4CC(C2)C(O)C(C4)C3)CC1 (single isomer, unassigned) [Compound 3-5]
Result: 87

Query: Report % inh. from soluble epoxide hydrolase (sEH) testing of CC(=O)N1CCC(NC(=O)NC23CC4CC(C2)C(O)C(C4)C3)CC1 (single isomer, unassigned) [Compound 3-8]
Result: 76

Query: Report % inh. from soluble epoxide hydrolase (sEH) testing of CS(=O)(=O)N1CCC(NC(=O)NC2CCN(S(C)(=O)=O)CC2)CC1 [Compound 8-1]
Result: 79

Query: Report % inh. from soluble epoxide hydrolase (sEH) testing of CC(=O)N1CCC(NC(=O)Nc2ccc(-c3nnn[nH]3)cc2)CC1 [Compound 6-9]
Result: 84

Query: Report % inh. from soluble epoxide hydrolase (sEH) testing of CC(=O)N1CCC(NC(=O)NC23CC4CC(CC(O)(C4)C2)C3)CC1 [Compound 3-2]
Result: 67

Query: Report % inh. from soluble epoxide hydrolase (sEH) testing of CC(=O)N1CCC(NC(=O)NC2CCCC2)CC1 [Compound 7-18]
Result: 74

Query: Report % inh. from soluble epoxide hydrolase (sEH) testing of CC(C)(C)OC(=O)N1CCC(NC(=O)Nc2ccncc2)CC1 [Compound 6-3]
Result: 81

Query: Report % inh. from soluble epoxide hydrolase (sEH) testing of CCCOc1ccc(NC(=O)NC2CCN(C(C)=O)CC2)cc1 [Compound 7-11]
Result: 94

Query: Report % inh. from soluble epoxide hydrolase (sEH) testing of CC(=O)N1CCC(NC(=O)NC23CC4CC(C2)C(O)C(C4)C3)CC1 (single isomer, unassigned) [Compound 3-7]
Result: 81
